The values you see were collected from patent US9024041B2.

test system: Differentiated U937 cells; assay: MTT assay: cell viability on exposure to test compounds; assay type: cell-based, human; conditions: percentage loss of cell viability vs vehicle; 1 μg/mL, 24 h, 10% FCS
The entries below come with measured MTT Assay (Viability) 24 h d-U937 values attached.
Unit % implied. Number only.

Previously resolved entries follow.
{"columns": ["Compound", "Measured Metric", "Measurement Units", "Measured Result"],
 "data": [
  ["COCC(=O)Nc1cc(Oc2ccc(NC(=O)Nc3cc(C(C)(C)C)nn3-c3ccc(OC(F)(F)F)cc3)c3ccccc23)ccn1 [Example 41]", "MTT Assay (Viability) 24 h d-U937", "%", 1.3],
  ["CC(C)(C)c1cc(NC(=O)Nc2ccc(Oc3ccnc(NC(=O)N4CCCC4)c3)c3ccccc23)n(-c2ccc(O)cc2)n1 [Example 35]", "MTT Assay (Viability) 24 h d-U937", "%", "−41.3"],
  ["CC(C)(C)c1cc(NC(=O)Nc2ccc(Oc3ccnc(NC(=O)N4CCOCC4)c3)c3ccccc23)n(-c2ccc(O)c(Cl)c2)n1 [Example 12]", "MTT Assay (Viability) 24 h d-U937", "%", "−42.9"],
  ["COc1ccc(-n2nc(C(C)(C)C)cc2NC(=O)Nc2ccc(Oc3ccnc(NC(=O)CO)c3)c3ccccc23)cc1 [Example 4]", "MTT Assay (Viability) 24 h d-U937", "%", "−38.2"],
  ["COCC(=O)Nc1cc(Oc2ccc(NC(=O)Nc3cc(C(C)(C)C)nn3-c3ccc(O)nc3)c3ccccc23)ccn1.Cl [Example 17]", "MTT Assay (Viability) 24 h d-U937", "%", "−7.6"]
]}

*Q* Which MTT Assay (Viability) 24 h d-U937 value is on record for COCC(=O)Nc1cc(Oc2ccc(NC(=O)Nc3cc(C4CCOCC4)nn3-c3ccc(C)cc3)c3ccccc23)ccn1 [Example 28] ?
*A* −34.5

*Q* Which MTT Assay (Viability) 24 h d-U937 value is on record for COCC(=O)Nc1cc(Oc2ccc(NC(=O)Nc3cc(C4CC4)nn3-c3ccc(C)cc3)c3ccccc23)ccn1 [Example 24] ?
*A* −7.4

*Q* Which MTT Assay (Viability) 24 h d-U937 value is on record for COCC(=O)Nc1cc(Oc2ccc(NC(=O)Nc3cc(C(C)(C)C)nn3-c3ccc(SC)cc3)c3ccccc23)ccn1 [Example 44] ?
*A* −16.4

*Q* Which MTT Assay (Viability) 24 h d-U937 value is on record for CNC(=O)Nc1cc(Oc2ccc(NC(=O)Nc3cc(C(C)(C)C)nn3-c3ccc(S(C)(=O)=O)cc3)c3ccccc23)ccn1 [Example 46] ?
*A* −47.9

*Q* Which MTT Assay (Viability) 24 h d-U937 value is on record for COCC(=O)Nc1cc(Oc2ccc(NC(=O)Nc3cc(C(C)(C)C)nn3-c3cccc(O)c3)c3ccccc23)ccn1 [Example 32] ?
*A* 42.2

*Q* Which MTT Assay (Viability) 24 h d-U937 value is on record for COCC(=O)Nc1cc(Oc2ccc(NC(=O)Nc3cc(C(C)(C)C)nn3-c3cc(OC)cc(OC)c3)c3ccccc23)ccn1 [Example 53] ?
*A* −0.9

*Q* Which MTT Assay (Viability) 24 h d-U937 value is on record for COc1ccc(-n2nc(C(C)(C)C)cc2NC(=O)Nc2ccc(Oc3ccnc(NC(=O)N(C)C)c3)c3ccccc23)cc1 [Example 7] ?
*A* −39.1

*Q* Which MTT Assay (Viability) 24 h d-U937 value is on record for COCC(=O)Nc1cc(Oc2ccc(NC(=O)Nc3cc(C4(C)CCOCC4)nn3-c3ccc(C)cc3)c3ccccc23)ccn1 [Example 20] ?
*A* −9.0

*Q* Which MTT Assay (Viability) 24 h d-U937 value is on record for CNC(=O)Nc1cc(COc2ccc(NC(=O)Nc3cc(C(C)(C)C)nn3-c3ccc(OC)nc3)c(C)c2C)ccn1 [Example 63] ?
*A* 21.2
